Experiment: physchem
Settings: PBS, 37 °C, pH 7.2, aqueous buffer

compound	solubility
CNC(=O)c1ccccc1Sc1ccc2c(/C=C/c3ccccn3)n[nH]c2c1 [axitinib]	0.4 to 0.5 µg/mL
